System: CASKI
Assay: Primary qHTS to identify gynecologic anti-cancer compounds using libraries of approved drugs and bioactive compounds (AID 1345084); further: nearly all actives have a fitted effect of over 55% in size
Conditions: Gynecologic cancer cell panel viability, ATPlite luminescence, 48 h; series mostly up to 57.5 µM
Inconclusive results are not listed. Active and inactive are the calls of the source. The call rests on the fitted dose curve; in most records, active means well fitted cell-killing curve with a large enough effect; inconclusive means small, poorly fitted or top-dose-only effect, or effect the other way; inactive means flat fitted curve, though single readings scatter.
Classes used: t = active, f = inactive

1. C/C(=C/CO)CC[C@@H]1[C@@](C)(O)CCC2C(C)(C)CCC[C@]21C (some centres undefined) : f
2. CC(C)S(=O)(=O)N[C@H]1CCOC[C@@H]1c1ccc(-c2ccc(C#N)s2)cc1 : f
3. O=C(/C=C\c1ccc(O)cc1)N[C@@H](Cc1ccc(O)cc1)C(=O)O : f
4. COCCOc1ccc(N2CCN(CCn3ncc4c3nc(N)n3nc(-c5ccco5)nc43)CC2)cc1 : f
5. Cc1cc(O)c(-c2ccc([C@@H](C)CN(C)C)cc2)c2c1[nH]c(=O)c1sccc12 : t
6. CC12CCC3c4ccc(O)cc4CCC3C1CC(OC1OC(C(=O)O)C(O)C(O)C1O)C2O (centres undefined) : f
7. O=C(OCC1=CC(O)C2C=CO[C@@H](O[C@@H]3O[C@H](CO)[C@@H](O)[C@H](O)[C@H]3O)C12)c1ccccc1 (some centres undefined) : f
8. C[C@@]1(O)[C@H](O)[C@@H](CO)O[C@H]1n1ccc(N)nc1=O : f
9. CC1CCC2(CO)C(C(=O)O)=CCCC2C1(C)CCc1ccoc1 (centres undefined) : f

---

System: CAOV3
Assay: Primary qHTS to identify gynecologic anti-cancer compounds using libraries of approved drugs and bioactive compounds (AID 1345084); further: nearly all actives have a fitted effect of over 55% in size
Details: Gynecologic cancer cell panel viability, ATPlite luminescence, 48 h; series mostly up to 57.5 µM
Inconclusive results are not listed. Activity calls are given as the source filed them. The call rests on the fitted dose curve; in most records, active means well fitted cell-killing curve with a large enough effect; inconclusive means small, poorly fitted or top-dose-only effect, or effect the other way; inactive means flat fitted curve, though single readings scatter.
Classes used: active, inactive

1) CC1(C)CC(=O)C2=C(C1)NC(=S)NC2c1cccc(O)c1 (centres undefined) : active
2) c1cc(OCCCN2CCCCC2)ccc1CN1CCCCC1 : inactive
3) CCC1C(=O)OC23C=C[C@@H]4C(C(=O)O)=CO[C@H](O[C@@H]12)[C@@H]43 (some centres undefined) : inactive
4) COCCN1CCN(Cc2ccc(-c3n[nH]c4c3C(=O)c3c(NC(=O)NN5CCOCC5)cccc3-4)cc2)CC1 : inactive
5) COC(=O)c1ccc(OC(CO)C(O)c2ccc(O)c(OC)c2)c(OC)c1 (centres undefined) : inactive
6) Cc1c2cc(c(C(=O)O)c1C)OC1OC(C(O)C(O)C1O)C(O)C(O)C1OC(O2)C(O)C(O)C1O (centres undefined) : inactive
7) CC1=CC(=O)C(=C(C)C)CC2C1CCC2(C)O (centres undefined) : inactive
8) O=C(O)Cc1cn(C2OCC(O)C(O)C2O[C@@H]2O[C@H](CO)[C@@H](O)[C@H](O)[C@H]2O)c2ccccc12 (some centres undefined) : inactive
9) CC1(C)CCC2(C(=O)OC3OC(CO)C(O)C(O)C3O)CCC3(C)C(=CCC4C5(C)CCC(O)C(C)(C(=O)O)C5CCC43C)C2C1O (centres undefined) : inactive

---

Tested on: CASKI
Experiment: Primary qHTS to identify gynecologic anti-cancer compounds using libraries of approved drugs and bioactive compounds (AID 1345084); further: nearly all actives have a fitted effect of over 55% in size
Details: Gynecologic cancer cell panel viability, ATPlite luminescence, 48 h; series mostly up to 57.5 µM
Inconclusive results are not listed. Active and inactive are the calls of the source. The call rests on the fitted dose curve; in most records, active means well fitted cell-killing curve with a large enough effect; inconclusive means small, poorly fitted or top-dose-only effect, or effect the other way; inactive means flat fitted curve, though single readings scatter.
Classes used: active, inactive

1) COc1ccc(F)cc1-c1cc(NC(=O)[C@@H]2CCCNC2)ncc1Cl : active
2) COc1c2c(c(C)c3c1C(=O)OC3)O[C@@]1(C)CCC3(C(C)(C)O)OC(=O)CC[C@]3(C)[C@H]1C2 (stereo partly drawn) : inactive
3) CC(C)C[C@H](CC(=O)NO)C(=O)N[C@@H](Cc1ccc2ccccc2c1)C(=O)N[C@@H](C)C(=O)NCCN : inactive
4) CC1CCC2(C(=O)O)CCC3(C)C(=CCC4C5(C)CCC(O)C(C)(CO)C5CCC43C)C2C1(C)O (stereo not drawn) : inactive
5) OC/C=C/C=C/[C@H]1Cc2cc(O)cc(O)c2O1 : inactive
6) C/C(=C\CCC1(C)C2CCC(C2)C1(C)O)C(=O)O (stereo not drawn) : inactive
7) CC(=O)C12OC(C)(C)OC1CC1C3CCC4=CC(=O)C=CC4(C)C3(F)C(O)CC12C (stereo not drawn) : inactive
8) CC(C)=CCC[C@](C)(O)[C@H]1CC[C@]2(C)[C@@H]1[C@H](O)CC1[C@@]3(C)CC[C@H](O)C(C)(C)C3[C@@H](O[C@@H]3O[C@H](CO)[C@@H](O)[C@H](O)[C@H]3O[C@@H]3OC[C@@H](O)[C@H](O)[C@H]3O)C[C@]12C (stereo partly drawn) : inactive
